experiment: Toxicity of Lu 9-110 (LD10, LD50); type: in vivo; conditions: mouse, in vivo, ip, i.p. solution, accumulated dose
quantity.kind: LD50

Query block: Value lookup for LD50; key = CC(CN(C)C)C(CNC(N)=O)(c1ccccc1)c1ccccc1 (stereo not shown)
Result block: 400 to 600 mg/kg
